Observed IC50, system Beta-1,3-glucan synthase (Candida albicans, UniProt O13383).
Endpoint name: IC50

> print(dat)
                                   molecule  recorded.value
1  CC1CN(S(=O)(=O)Cc2ccccc2)CCN1c1cnn(-c2ccccc2)c(=O)c1OC1CCCCC1 (stereo unspecified)         4.21 µM
2  CC(C)S(=O)(=O)N1CCN(c2cnn(-c3cc(F)cc(F)c3)c(=O)c2OC2CCC(F)C2)CC1 (racemic)         1.24 µM
3  CCOCCOc1c(N2CCN(S(=O)(=O)Cc3ccccc3)CC2)cnn(-c2ccccc2)c1=O         1.81 µM
4  CC(C)S(=O)(=O)N1CCN(c2cnn(-c3cccc(N)c3)c(=O)c2OC2CCCC2)CC1         4.12 µM
5  CC(C)S(=O)(=O)N1CCN(c2cnn(-c3nccs3)c(=O)c2OC2CCCC2)CC1         > 22 µM
6  C[C@@H]1CN(c2cnn(-c3ccccc3)c(=O)c2OC2CCCCC2)CCN1S(=O)(=O)Cc1ccccc1         5.36 µM

----------
- Target or test system: hERG (KCNH2) (Homo sapiens)
- Sequence (Q12809 whole entry): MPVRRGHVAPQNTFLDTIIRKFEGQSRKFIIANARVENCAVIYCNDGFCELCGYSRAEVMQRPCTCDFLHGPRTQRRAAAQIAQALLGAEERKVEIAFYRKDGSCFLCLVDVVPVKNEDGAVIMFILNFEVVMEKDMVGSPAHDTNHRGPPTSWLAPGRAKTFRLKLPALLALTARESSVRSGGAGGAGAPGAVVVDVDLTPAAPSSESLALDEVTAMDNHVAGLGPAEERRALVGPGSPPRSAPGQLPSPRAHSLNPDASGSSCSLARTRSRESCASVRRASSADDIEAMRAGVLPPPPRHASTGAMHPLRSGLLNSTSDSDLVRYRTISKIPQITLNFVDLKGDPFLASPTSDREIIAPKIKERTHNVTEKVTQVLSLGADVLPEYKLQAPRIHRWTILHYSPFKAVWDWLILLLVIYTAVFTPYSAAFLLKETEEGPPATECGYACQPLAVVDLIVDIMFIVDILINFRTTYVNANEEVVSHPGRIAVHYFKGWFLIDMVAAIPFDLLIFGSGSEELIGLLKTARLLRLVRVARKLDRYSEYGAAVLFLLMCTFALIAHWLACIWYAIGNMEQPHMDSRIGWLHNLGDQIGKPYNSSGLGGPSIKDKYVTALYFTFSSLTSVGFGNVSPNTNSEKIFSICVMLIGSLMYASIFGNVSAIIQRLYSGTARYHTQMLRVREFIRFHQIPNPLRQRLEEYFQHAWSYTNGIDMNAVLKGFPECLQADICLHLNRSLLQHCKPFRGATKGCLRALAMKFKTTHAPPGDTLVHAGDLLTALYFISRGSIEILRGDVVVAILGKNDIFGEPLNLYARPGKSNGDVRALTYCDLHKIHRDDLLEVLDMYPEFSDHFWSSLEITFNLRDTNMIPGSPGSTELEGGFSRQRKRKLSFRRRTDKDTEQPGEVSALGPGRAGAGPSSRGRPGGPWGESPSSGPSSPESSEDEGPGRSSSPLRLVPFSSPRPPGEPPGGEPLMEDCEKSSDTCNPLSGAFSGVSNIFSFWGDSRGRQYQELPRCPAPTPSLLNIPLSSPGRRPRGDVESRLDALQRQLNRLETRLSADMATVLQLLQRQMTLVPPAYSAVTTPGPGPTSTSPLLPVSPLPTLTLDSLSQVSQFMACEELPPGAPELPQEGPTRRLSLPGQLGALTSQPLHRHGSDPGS
- Experimental details: Inhibition of human ERG at 1 uM by patch clamp assay
Endpoint name: inhibition at 1 µM (%)

> print(dat)
                                   compound        target.or.test.system       endpoint.name  readout.units  recorded.value
1  CC(C)S(=O)(=O)N1CCN(c2cnn(-c3cc(F)cc(F)c3)c(=O)c2OC2CCC(F)C2)CC1 (racemic)  hERG (KCNH2) (Homo sapiens)  inhibition at 1 µM              %              22

----------
- Experimental details: AUC (0 to 8 hrs) in dog at 2 mg/kg, po administered with methylcellulose and HPBCD
- Format: ADME, organism-based, Canis lupus familiaris
- Design: time < 8 hr, dose 2 mg/kg, route oral
- Condition info: in vivo
Endpoint name: AUC(0-t) at 8 h (ng·h/mL)

> print(dat)
                                   compound  recorded.value
1  CC(C)S(=O)(=O)N1CCN(c2cnn(-c3cc(F)cc(F)c3)c(=O)c2OC2CCC(F)C2)CC1 (racemic)            3500

----------
- Target or test system: Beta-1,3-glucan synthase (Candida albicans)
- Sequence (O13383 whole entry): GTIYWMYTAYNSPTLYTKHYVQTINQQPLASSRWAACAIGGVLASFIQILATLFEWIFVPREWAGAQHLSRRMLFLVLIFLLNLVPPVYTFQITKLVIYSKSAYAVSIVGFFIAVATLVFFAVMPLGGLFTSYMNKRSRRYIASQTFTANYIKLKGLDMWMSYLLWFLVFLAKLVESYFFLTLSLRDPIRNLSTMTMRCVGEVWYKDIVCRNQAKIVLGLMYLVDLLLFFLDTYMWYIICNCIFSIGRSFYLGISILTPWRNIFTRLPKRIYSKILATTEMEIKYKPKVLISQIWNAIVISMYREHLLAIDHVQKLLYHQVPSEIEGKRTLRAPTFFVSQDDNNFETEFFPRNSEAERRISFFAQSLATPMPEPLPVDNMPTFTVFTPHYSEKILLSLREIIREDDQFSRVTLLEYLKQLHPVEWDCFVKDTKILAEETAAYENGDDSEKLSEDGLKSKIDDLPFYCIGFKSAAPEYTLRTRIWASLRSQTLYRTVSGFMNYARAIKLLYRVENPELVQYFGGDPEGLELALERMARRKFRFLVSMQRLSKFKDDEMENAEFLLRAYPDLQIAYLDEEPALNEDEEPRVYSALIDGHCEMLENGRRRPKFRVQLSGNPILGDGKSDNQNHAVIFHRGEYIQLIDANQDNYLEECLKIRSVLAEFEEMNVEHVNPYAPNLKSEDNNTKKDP
Label label 1 when IC50 is strictly below 3000 nM; at or above that, label label 0.

> print(dat)
                                   molecule  assigned.label
1  O=c1c(OC2CCCC2)c(N2CCN(S(=O)(=O)Cc3ccccn3)CC2)cnn1-c1ccccc1         label 1
2  O=c1c(OC2CCCC2)c(N2CCN(S(=O)(=O)c3ccccn3)CC2)cnn1-c1ccccc1         label 1
3  CCCCCCC[S+]([O-])c1c(N2CCN(S(=O)(=O)Cc3ccccc3)CC2)cnn(-c2ccccc2)c1=O (centres undefined)         label 0
4  CC(C)S(=O)(=O)N1CCN(c2cnn(-c3cccc(F)c3)c(=O)c2OC2CCC(F)(F)C2)CC1 (centres undefined)         label 1
5  CCCCCCCS(=O)(=O)c1c(N2CCN(S(=O)(=O)Cc3ccccc3)CC2)cnn(-c2ccccc2)c1=O         label 0
6  O=c1c(OC2CCCCC2)c(N2CC3CC2CN3S(=O)(=O)Cc2ccccc2)cnn1-c1ccccc1 (centres undefined)         label 0
7  CC(C)S(=O)(=O)N1CCN(c2cnn(C3CCCCC3)c(=O)c2OC2CCCC2)CC1         label 0
8  CCCCCCCOc1c(N2CCN(S(=O)(=O)Cc3ccccc3)CC2)cnn(-c2ccccc2)c1=O         label 1
